Please go through the items and note down their inhibition.
- target: Quinolone resistance protein NorA (Staphylococcus aureus) (UniProt P0A0J7)
- Sequence (whole entry): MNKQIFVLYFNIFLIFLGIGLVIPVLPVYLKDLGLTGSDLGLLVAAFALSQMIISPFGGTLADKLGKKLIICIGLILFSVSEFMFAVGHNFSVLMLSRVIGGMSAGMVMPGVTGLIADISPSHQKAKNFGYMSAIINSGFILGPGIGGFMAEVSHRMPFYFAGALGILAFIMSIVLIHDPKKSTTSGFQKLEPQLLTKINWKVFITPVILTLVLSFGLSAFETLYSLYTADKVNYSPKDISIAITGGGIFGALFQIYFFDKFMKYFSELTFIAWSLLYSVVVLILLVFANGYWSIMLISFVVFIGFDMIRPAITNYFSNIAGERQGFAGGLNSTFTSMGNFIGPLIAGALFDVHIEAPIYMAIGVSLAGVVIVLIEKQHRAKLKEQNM
- assay protocol: Inhibition of norA-mediated ethidium bromide efflux in methicillin-resistant Staphylococcus aureus SA-1199B at 10 ug/ml by spectrofluorometric analysis
Numbers only, in %.

Some compounds with recorded inhibition:
input smiles: C=CCOc1ccccc1C(=O)/C=C/c1ccc(OCC(=O)O)cc1
inhibition [%]: 79.9

input smiles: CN(C)CCOc1ccc(C(=O)/C=C/c2ccccc2)cc1
inhibition [%]: 56.9

input smiles: COc1ccc(/C=C/C(=O)c2ccc(O)cc2)cc1OC
inhibition [%]: 64.3

input smiles: COC(=O)[C@H]1[C@H]2C[C@@H]3c4[nH]c5cc(OC)ccc5c4CCN3C[C@H]2C[C@@H](OC(=O)c2cc(OC)c(OC)c(OC)c2)[C@@H]1OC
inhibition [%]: 71.8

Note: attention shifts to another entry.
Quick check: inhibition of COc1cccc(/C=C/C(=O)c2ccc(O)cc2)c1OC ? 73.3

====

Please go through the items and note down their pIC50.
- target: Quinolone resistance protein NorA (Staphylococcus aureus, UniProt P0A0J7)
- Sequence (P0A0J7 whole entry): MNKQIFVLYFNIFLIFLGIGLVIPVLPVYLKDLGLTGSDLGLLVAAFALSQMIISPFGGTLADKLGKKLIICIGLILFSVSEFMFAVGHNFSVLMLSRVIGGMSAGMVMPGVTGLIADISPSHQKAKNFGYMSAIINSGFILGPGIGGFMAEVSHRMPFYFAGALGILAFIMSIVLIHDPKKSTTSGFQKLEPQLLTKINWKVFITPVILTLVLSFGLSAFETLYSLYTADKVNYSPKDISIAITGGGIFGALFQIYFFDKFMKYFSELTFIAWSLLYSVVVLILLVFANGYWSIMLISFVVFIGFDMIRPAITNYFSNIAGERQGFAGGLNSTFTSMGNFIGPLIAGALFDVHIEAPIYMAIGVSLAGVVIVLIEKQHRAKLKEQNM
- assay protocol: Inhibition of norA-mediated ethidium bromide efflux in methicillin-resistant Staphylococcus aureus SA-1199B by spectrofluorometric analysis
Numbers only, as −log10 of the molar value.

Some compounds with recorded pIC50:
input smiles: COc1ccc(/C=C/C(=O)c2ccc(O)cc2)c(OC)c1
pIC50: 4.54
--
input smiles: COc1ccc(OC)c(/C=C/C(=O)c2ccc(O)cc2)c1
pIC50: 4.82
--
input smiles: COc1ccc(/C=C/C(=O)c2ccc(O)cc2)cc1OC
pIC50: 4.58
--
input smiles: CN(C)CCOc1ccc(C(=O)/C=C/c2ccc(Oc3ccccc3)cc2)cc1
pIC50: 5.05
--
input smiles: C=CCOc1ccccc1C(=O)/C=C/c1ccc(OCC(=O)O)cc1
pIC50: 4.77
--
input smiles: CN(C)CCOc1ccc(C(=O)/C=C/c2ccc(N(C)C)cc2)cc1
pIC50: 5.11
--
input smiles: CN(C)CCOc1ccc(C(=O)/C=C/c2ccccc2)cc1
pIC50: 4.55
--
input smiles: COC(=O)[C@H]1[C@H]2C[C@@H]3c4[nH]c5cc(OC)ccc5c4CCN3C[C@H]2C[C@@H](OC(=O)c2cc(OC)c(OC)c(OC)c2)[C@@H]1OC
pIC50: 5.09
--
input smiles: COc1cccc(/C=C/C(=O)c2ccc(O)cc2)c1OC
pIC50: 4.61
--
input smiles: COc1cc(O)cc(C)c1/C=C/C(=O)c1ccc(O)cc1
pIC50: 4.87

Note: attention shifts to another entry.
Quick check: pIC50 of CN(C)CCOc1ccc(C(=O)/C=C/c2ccccc2F)cc1 ? 4.74
